target.system: human SLC6A19 (Homo sapiens, UniProt Q695T7)
Construct: expressed in transfected cells
Sequence (Q695T7 1-634): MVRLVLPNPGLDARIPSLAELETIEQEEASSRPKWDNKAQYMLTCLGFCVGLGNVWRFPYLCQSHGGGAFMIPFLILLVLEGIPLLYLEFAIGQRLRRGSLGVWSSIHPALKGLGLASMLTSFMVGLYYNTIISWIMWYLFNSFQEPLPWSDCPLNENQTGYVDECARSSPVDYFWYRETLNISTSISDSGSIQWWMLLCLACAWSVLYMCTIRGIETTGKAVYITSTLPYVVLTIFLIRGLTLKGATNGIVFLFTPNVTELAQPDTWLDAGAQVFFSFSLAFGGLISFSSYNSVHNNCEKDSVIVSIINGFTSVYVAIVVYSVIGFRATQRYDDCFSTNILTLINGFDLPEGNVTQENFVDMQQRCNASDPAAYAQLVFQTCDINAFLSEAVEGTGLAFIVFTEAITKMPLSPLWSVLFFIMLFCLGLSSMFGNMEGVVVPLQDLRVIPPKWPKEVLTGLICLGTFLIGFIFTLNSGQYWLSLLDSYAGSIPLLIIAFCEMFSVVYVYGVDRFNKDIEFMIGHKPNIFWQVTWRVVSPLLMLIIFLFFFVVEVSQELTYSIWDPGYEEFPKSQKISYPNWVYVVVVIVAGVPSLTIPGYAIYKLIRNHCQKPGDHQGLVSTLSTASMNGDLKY
Sequence (Q9HBJ8 15-222 partner): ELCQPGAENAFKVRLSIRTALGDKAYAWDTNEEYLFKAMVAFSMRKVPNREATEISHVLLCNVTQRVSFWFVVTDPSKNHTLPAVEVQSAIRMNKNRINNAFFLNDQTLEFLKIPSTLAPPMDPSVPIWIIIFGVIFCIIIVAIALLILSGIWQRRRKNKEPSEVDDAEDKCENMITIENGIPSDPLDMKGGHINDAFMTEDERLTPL
experiment.notes: Example B2: 13C6,15N-isoleucine uptake, RapidFire mass spectrometry, in CHO cells with doxycycline-inducible expression of human SLC6A19 and TMEM27
Format: cell-based
condition: read-out: SLC6A19_RapidFire Uptake Assay IC50
pIC50: −log10 of the molar value.
Listing: pIC50 of selected compounds

| compound | pIC50 |
| --- | --- |
| CC(=O)N1CCC[C@@H](N(C)C(=O)NCc2cc3cc(Cl)c(OCc4cc(C)on4)cc3[nH]2)C1 [Compound 135] | 6.49 |
| CN(C(=O)NCc1cc2cc(Cl)ccc2[nH]1)[C@@H]1CCCN(C(=O)c2cnn(C)c2)C1 [Compound 55] | 6.24 |
| CN(C(=O)NCc1cc2cc(Cl)ccc2[nH]1)[C@@H]1CCCN(C(=O)c2cccn3cnnc23)C1 [Compound 74] | 5.60 |
| CN(C(=O)NCc1cc2cc(Cl)ccc2[nH]1)[C@@H]1CCCN(C(=O)c2ncccn2)C1 [Compound 22] | 5.36 |
| CC(=O)N1CCC[C@@H](N(C)C(=O)NCc2cc3cc(C)ccc3[nH]2)C1 [Compound 218] | 6.19 |
| Cc1cc(COc2cc3[nH]c(CNC(=O)N(C)[C@@H]4CCCN(c5cccnn5)C4)cc3cc2Cl)no1 [Compound 144] | 6.55 |
| CN(C(=O)NCc1cc2cc(Cl)ccc2[nH]1)[C@@H]1CCCN(C(=O)CO)C1 [Compound 4] | 6.21 |
| CCN(C(=O)NCc1cc2cc(Cl)c(OC)cc2[nH]1)[C@@H]1CCCN(C(C)=O)C1 [Compound 167] | 6.99 |

Values from patent US20260184693A1
